Provenance of the data: a melting point compilation (Tetko et al.; mined from patent text by program, amines drawn as free bases though some values may be those of a salt)

measurementLabel: melting point

Examples with their reported melting point follow.
{"compound": "OC(c1ccc(Cl)cc1)(c1ccc(Cl)cc1)c1nccn1Cc1ccccc1", "melting point": "167 to 168 °C"}
{"compound": "COc1cc2c(Nc3cccc(Cl)c3F)ncnc2cc1OC1CCN(C(=O)[C@@H](C)O)CC1", "melting point": "107 to 111 °C"}
{"compound": "Cc1c(C)c2c(c(C)c1NC(=O)c1ccc3c(c1)OCO3)C(c1ccc(C(C)C)cc1)C(C)(C)O2 (centres undefined)", "melting point": "165 to 167 °C"}
{"compound": "CCOC(=O)c1c(CN(C)c2ccccc2)nc2cc(OC)c(OC)cc2c1-c1ccc(OC)c(OC)c1", "melting point": "194 to 196 °C"}
{"compound": "CCC(C)(C)N=C(NC#N)Nc1cc(F)cc(Cl)c1", "melting point": "130 to 131 °C"}

Data point: "COc1ccc(Br)c(C(=O)N2CCN(S(=O)(=O)c3ccccc3F)CC2)c1" ; melting point = 167 °C

Lab note: measured melting point of "Cc1nnc(SCc2ccccc2)s1" was 60 to 63 °C

The value of melting point measured for the compound "Fc1cccc(Cl)c1-c1nnc2ccc(C(F)(F)F)cn12" turned out to be 170 to 171 °C

Record summary for "CCOC(=O)CCc1cc2c(Nc3ccc4[nH]ccc4c3)c(C#N)cnc2s1" : reported melting point = 202 °C

###

measurementLabel: melting point

Here is how some molecules turned out for melting point.
{"molecule": "Nc1nc(/C(=N/OCc2nnn[nH]2)C(=O)O)cs1", "melting point": "151 to 152 °C"}
{"molecule": "C=CC(C)(C)c1cc(CCC(=O)c2ccc(O)cc2)c(OC)cc1O", "melting point": "154 °C"}
{"molecule": "O=c1ccc(-c2ccc(Cl)c(C(F)(F)F)c2)n[nH]1", "melting point": "249 to 251 °C"}
{"molecule": "CCCCc1oc2ccccc2c1C(=O)NCc1ccc2c(Br)c(OC(Cc3ccccc3)C(=O)OC)ccc2c1 (stereo not given)", "melting point": "110 to 112 °C"}
{"molecule": "COc1cc(C2C3=C(COC3=O)Nc3ccc4cc[nH]c4c32)cc(OC)c1OC (stereo not given)", "melting point": "299 to 301 °C"}
{"molecule": "CC(=O)Nc1nc(CCc2ccc(CBr)cc2)cs1", "melting point": "148 to 150 °C"}

// sample "CC(=O)N(N=Cc1c(Cl)cccc1Cl)c1nncn1N(C)C(C)=O" , its melting point was 167 to 169 °C

Lookup result for "c1cncc(CC2CCN(CC34CC(c5ccccc53)c3ccccc34)CC2)c1" ; measured melting point: 183 to 185 °C

Note to self: melting point recorded for "COc1ccc2cccc(Cl)c2c1" was 32 to 34 °C

Query "COc1ccc(F)c2c(O)c3cnccc3cc12" yields melting point of > 210 °C

GET /value?item= "COC(=O)c1ccc(OCCC2CCN(c3cc(Cl)nnc3Cl)CC2)cc1" &field=melting point returns 115 to 117 °C

Quick note, melting point for "CCc1cccc(CC(=O)O)c1OCCn1cc(C(=O)NCc2ccc(C(F)(F)F)cc2)c(OC(C)C)n1" landed at 110 to 111 °C

Per the record, "COC(=O)c1ccc(S(=O)(=O)N2CC[C@@H](Sc3cc(C(C)(C)C)c(O)c(C(C)(C)C)c3)C2)n1C" has melting point of 83 to 85 °C

Record CCCOC(C(Cc1ccc(Cl)cc1)n1cncn1)C1(C)COCOC1 (stereo not given) . Reported melting point: 94 to 96 °C

The molecule identified as "CCN(c1ccc(SC)cc1C#N)S(=O)(=O)c1ccc(C)cc1" registered its melting point at 136 to 137 °C
